Attribution: PubChem BioAssay (NCI)

Test system: CCRF-CEM leukemia
Test: NCI-60 one-dose screen, 48 h (100 = growth as untreated, 0 = no growth, -100 = all killed)
Settings: 10 µM unless noted
The panel holds about 83,000 compounds, 20% with a hit somewhere; the sample as a whole holds those more often.
Label Met when growth is strictly below 50%; at or above that, label Not met.

Use the examples below as a reference point.
| Molecule | Cat |
| --- | --- |
| CO/C=C/C(=O)c1cc2cnc3c(=N)cc(NC(=O)C(C)C)c([nH]1)c23 | Met |
| CCN1CCN(CCCN(C[C@H]2Cc3ccccc3CN2)[C@H]2CCCc3cccnc32)CC1 | Not met |
| COc1cc2c(cc1OCCCCCCN1CCN(c3ncnc4ccccc34)CC1)N=CC1CCCN1C2=O (stereo not given) | Met |

Query molecule follows.
Task item: Take the molecule c1cn2cc(-c3ccc4cn[nH]c4c3)nc(Nc3ccc(N4CCOCC4)cc3)c2n1 and say whether its growth is less than 50%.
Reply: Not met
